Could you please report measured half-life at 1 μM for the items listed next?
assay: Metabolic stability evaluation in human liver microsomes; type: in vitro ADME; conditions: human liver microsomes, pH 7.4; human liver microsome, 1 μM compound, 0.5 mg/mL protein
Numbers only, in min.

[
  {
    "compound": "[2H]C1=C(c2cccnc2)[C@@]2(C)CCC3C(CC=C4C[C@@H](O)CC[C@@]43C)C2C1 (some centres unmarked)",
    "half-life at 1 μM, min": 51.3
  },
  {
    "compound": "[2H]c1ccc(C2=CCC3C4CCC5=CC(=O)CC[C@]5(C)C4CC[C@]23C)cn1 (some centres unmarked)",
    "half-life at 1 μM, min": 3.4
  },
  {
    "compound": "C[C@]12CC[C@H](O)CC1=CC[C@@H]1[C@@H]2CC[C@]2(C)C(c3cccnc3)=CC[C@@H]12 [Abiraterone, (3β)-17-(3-pyridinyl)androst-5,16-dienol, reference compound]",
    "half-life at 1 μM, min": 40
  }
]

Form: compound = [2H]c1cncc(C2=CCC3C4CC=C5C[C@@H](O)CC[C@]5(C)C4CC[C@]23C)c1 (some centres unmarked) ; half-life at 1 μM = 71.2
